Source of measurements: patent US9963442B2

# Tested on: kochia (Kochia scoparia)
# PROCEDURE_DETAILS: Test C postemergence
# Format: in vivo
# TEST_PARAMETERS: 62 g ai/ha, scale 0 to 100, 0 is no effect, 100 is complete control
MEASUREMENT_TYPE: Plant response rating, Kochia
Number, no unit, nothing else.

GIVEN_SMILES | Plant response rating, Kochia
O=c1cccc(Oc2ncc(Cl)cn2)n1-c1ncc(Cl)cn1 | 80

query: Query (molecule): `O=c1cccc(Oc2ncc(Cl)cn2)n1-c1ccc(Cl)cc1` ; field requested: Plant response rating, Kochia
result: 95

query: Query (molecule): `O=c1cccc(Oc2ncc(Cl)cn2)n1-c1ccc(C(F)(F)F)cc1` ; field requested: Plant response rating, Kochia
result: 90

query: Query (molecule): `O=c1cccc(Oc2ncc(Cl)cn2)n1-c1ccc(C(F)(F)F)cn1` ; field requested: Plant response rating, Kochia
result: 70

* * *

# Test system: yellow nutsedge (Cyperus esculentus)
# PROCEDURE_DETAILS: Test C postemergence
# Assay type: in vivo
# TEST_PARAMETERS: 62 g ai/ha, scale 0 to 100, 0 is no effect, 100 is complete control
Parameter: Plant response rating, Nutsedge, Yellow. Scope: all listed entries.
Number, no unit, nothing else.

GIVEN_SMILES | TEST_TARGET | Plant response rating, Nutsedge, Yellow
O=c1cccc(Oc2ncc(Cl)cn2)n1-c1ccc(C(F)(F)F)cc1 | yellow nutsedge (Cyperus esculentus) | 15
O=c1cccc(Oc2ncc(Cl)cn2)n1-c1ncc(Cl)cn1 | yellow nutsedge (Cyperus esculentus) | 5
O=c1cccc(Oc2ncc(Cl)cn2)n1-c1ccc(Cl)cc1 | yellow nutsedge (Cyperus esculentus) | 5

Query compound follows.
query: Query (compound): `O=c1cccc(Oc2ncc(Cl)cn2)n1-c1ccc(C(F)(F)F)cn1` ; field requested: Plant response rating, Nutsedge, Yellow
result: 5

* * *

Parameter: Plant response rating, Waterhemp. Scope: all listed entries.
# System: waterhemp (common waterhemp, Amaranthus rudis)
# PROCEDURE_DETAILS: Test C postemergence
# Format: in vivo
# TEST_PARAMETERS: 31 g ai/ha, scale 0 to 100, 0 is no effect, 100 is complete control
Number, no unit, nothing else.

query: Query (molecule): `O=c1cccc(Oc2ncc(Cl)cn2)n1-c1ccc(C(F)(F)F)cc1` ; field requested: Plant response rating, Waterhemp
result: 80

query: Query (molecule): `O=c1cccc(Oc2ncc(Cl)cn2)n1-c1ncc(Cl)cn1` ; field requested: Plant response rating, Waterhemp
result: 75

query: Query (molecule): `O=c1cccc(Oc2ncc(Cl)cn2)n1-c1ccc(C(F)(F)F)cn1` ; field requested: Plant response rating, Waterhemp
result: 70

query: Query (molecule): `O=c1cccc(Oc2ncc(Cl)cn2)n1-c1ccc(Cl)cc1` ; field requested: Plant response rating, Waterhemp
result: 80

* * *

# Test system: soybean (Glycine max)
# PROCEDURE_DETAILS: Test C postemergence
# Type: in vivo
# TEST_PARAMETERS: 31 g ai/ha, scale 0 to 100, 0 is no effect, 100 is complete control
Parameter: Plant response rating, Soybean. Scope: all listed entries.

query: Query (compound): `O=c1cccc(Oc2ncc(Cl)cn2)n1-c1ccc(C(F)(F)F)cn1` ; field requested: Plant response rating, Soybean
result: 40

query: Query (compound): `O=c1cccc(Oc2ncc(Cl)cn2)n1-c1ccc(Cl)cc1` ; field requested: Plant response rating, Soybean
result: 35

query: Query (compound): `O=c1cccc(Oc2ncc(Cl)cn2)n1-c1ccc(C(F)(F)F)cc1` ; field requested: Plant response rating, Soybean
result: 40

query: Query (compound): `O=c1cccc(Oc2ncc(Cl)cn2)n1-c1ncc(Cl)cn1` ; field requested: Plant response rating, Soybean
result: 45

* * *

Parameter: Plant response rating, Wheat. Scope: all listed entries.
# Tested on: winter wheat (Triticum aestivum)
# PROCEDURE_DETAILS: Test C postemergence
# Format: in vivo
# TEST_PARAMETERS: 16 g ai/ha, scale 0 to 100, 0 is no effect, 100 is complete control
Number, no unit, nothing else.

GIVEN_SMILES | REPORTED_VALUE
O=c1cccc(Oc2ncc(Cl)cn2)n1-c1ccc(C(F)(F)F)cc1 | 0
O=c1cccc(Oc2ncc(Cl)cn2)n1-c1ncc(Cl)cn1 | 0
O=c1cccc(Oc2ncc(Cl)cn2)n1-c1ccc(Cl)cc1 | 0

query: Hi! What's the reported Plant response rating, Wheat for `O=c1cccc(Oc2ncc(Cl)cn2)n1-c1ccc(C(F)(F)F)cn1` on winter wheat (Triticum aestivum)?
result: 0

* * *

# Tested on: giant foxtail (Setaria faberii)
# PROCEDURE_DETAILS: Test A postemergence application
# Type: in vivo
# TEST_PARAMETERS: 125 g ai/ha, approx. 10 days
# binarize Plant response rating (0 to 100 scale, 0 no effect, 100 complete control), Foxtail, Giant: threshold 70 inclusive, high side condition met, low side condition not met

Solved cases (4 shown):
COMPOUND | TEST_TARGET | CLASS_NAME
O=c1cccc(Oc2ncc(Cl)cn2)n1-c1ccc(C(F)(F)F)cc1 [Compound 10] | giant foxtail (Setaria faberii) | condition met
O=c1cccc(Oc2ncc(Cl)cn2)n1-c1ccc(F)cn1 [Compound 9] | giant foxtail (Setaria faberii) | condition not met
O=c1cccc(Oc2ncc(Cl)cn2)n1-c1cccc(C(F)(F)F)c1 [Compound 2] | giant foxtail (Setaria faberii) | condition not met
O=c1cccc(Oc2ncc(Cl)cn2)n1-c1ncc(C(F)(F)F)cn1 [Compound 5] | giant foxtail (Setaria faberii) | condition met

query: Given O=c1cccc(Oc2ncc(Cl)cn2)n1-c1ncc(F)cn1 [Compound 4] , state whether its Plant response rating (0 to 100 scale, 0 no effect, 100 complete control), Foxtail, Giant is at least 70.
result: condition not met

query: Given O=c1cccc(Oc2ncc(Cl)cn2)n1-c1ncc(Cl)cn1 [Compound 6] , state whether its Plant response rating (0 to 100 scale, 0 no effect, 100 complete control), Foxtail, Giant is at least 70.
result: condition not met

query: Given O=c1cccc(Oc2ncc(Cl)cn2)n1-c1ccc(C(F)(F)F)cn1 [Compound 7] , state whether its Plant response rating (0 to 100 scale, 0 no effect, 100 complete control), Foxtail, Giant is at least 70.
result: condition not met

* * *

# Test system: barnyardgrass (Echinochloa crus-galli)
# PROCEDURE_DETAILS: Test C postemergence
# Assay type: in vivo
# TEST_PARAMETERS: 62 g ai/ha, scale 0 to 100, 0 is no effect, 100 is complete control
Parameter: Plant response rating, Barnyardgrass. Scope: all listed entries.
Number, no unit, nothing else.

Example results:
COMPOUND | TEST_TARGET | REPORTED_VALUE
O=c1cccc(Oc2ncc(Cl)cn2)n1-c1ccc(C(F)(F)F)cn1 [Compound 7] | barnyardgrass (Echinochloa crus-galli) | 5
O=c1cccc(Oc2ncc(Cl)cn2)n1-c1ccc(Cl)cc1 [Compound 1] | barnyardgrass (Echinochloa crus-galli) | 10
O=c1cccc(Oc2ncc(Cl)cn2)n1-c1ccc(C(F)(F)F)cc1 [Compound 10] | barnyardgrass (Echinochloa crus-galli) | 25

query: Query (compound): O=c1cccc(Oc2ncc(Cl)cn2)n1-c1ncc(Cl)cn1 [Compound 6] ; field requested: Plant response rating, Barnyardgrass
result: 5

* * *

# Tested on: Italian ryegrass (Lolium multiflorum)
# PROCEDURE_DETAILS: Test C postemergence
# Assay type: in vivo
# TEST_PARAMETERS: 125 g ai/ha, scale 0 to 100, 0 is no effect, 100 is complete control
Parameter: Plant response rating, Ryegrass, Italian. Scope: all listed entries.
Number, no unit, nothing else.

Example results:
GIVEN_SMILES | REPORTED_VALUE
O=c1cccc(Oc2ncc(Cl)cn2)n1-c1ncc(Cl)cn1 | 0
O=c1cccc(Oc2ncc(Cl)cn2)n1-c1ccc(C(F)(F)F)cn1 | 10
O=c1cccc(Oc2ncc(Cl)cn2)n1-c1ccc(Cl)cc1 | 10

Query compound follows.
query: Query (compound): `O=c1cccc(Oc2ncc(Cl)cn2)n1-c1ccc(C(F)(F)F)cc1` ; field requested: Plant response rating, Ryegrass, Italian
result: 20

* * *

# Tested on: galium (catchweed bedstraw, Galium aparine)
# PROCEDURE_DETAILS: Test C postemergence
# Format: in vivo
# TEST_PARAMETERS: 62 g ai/ha, scale 0 to 100, 0 is no effect, 100 is complete control
MEASUREMENT_TYPE: Plant response rating, Galium
Number, no unit, nothing else.

Example results:
GIVEN_SMILES | TEST_TARGET | Plant response rating, Galium
O=c1cccc(Oc2ncc(Cl)cn2)n1-c1ccc(Cl)cc1 | galium (catchweed bedstraw, Galium aparine) | 80
O=c1cccc(Oc2ncc(Cl)cn2)n1-c1ccc(C(F)(F)F)cc1 | galium (catchweed bedstraw, Galium aparine) | 75
O=c1cccc(Oc2ncc(Cl)cn2)n1-c1ncc(Cl)cn1 | galium (catchweed bedstraw, Galium aparine) | 60

Query molecule follows.
query: Query (molecule): `O=c1cccc(Oc2ncc(Cl)cn2)n1-c1ccc(C(F)(F)F)cn1` ; field requested: Plant response rating, Galium
result: 60
